Tested on: A549 cells
Test: cells
Details: Homo sapiens, A549, 72 h
measurementName: GI50 (nM)
Write the number in nM without appending the unit.

Endpoint output: GI50 of COc1ccc2[nH]c3c(c2c1)C[C@@H](CN)N[C@]31CS[C@@H]2c3c(OC(C)=O)c(C)c4c(c3[C@H](COC1=O)N1[C@@H]2[C@H]2c3c(cc(C)c(OC)c3O)C[C@@H]([C@@H]1C#N)N2C)OCO4 [Compound 26-S] . Value?
11.2

Here is the next compound: COc1c(C)cc2c(c1O)[C@@H]1[C@@H]3[C@@H]4SC[C@]5(N[C@H](COC(C)=O)Cc6c5[nH]c5ccccc65)C(=O)OC[C@@H](c5c6c(c(C)c(OC(C)=O)c54)OCO6)N3[C@@H](C#N)[C@H](C2)N1C [Compound 3a-S]
3.11

Moving on to COc1ccc2[nH]c3c(c2c1)C[C@@H](CO)N[C@]31CS[C@@H]2c3c(OC(C)=O)c(C)c4c(c3[C@H](COC1=O)N1[C@@H]2[C@H]2c3c(cc(C)c(OC)c3O)C[C@@H]([C@@H]1C#N)N2C)OCO4 [Compound 18-S]
1.7

Measured values drawn from patent US10538535B2 for this set.
